biological target: SpSla1-D1-D2; assay: SPOT peptide array binding signal intensity (averaged, normalized) (arbitrary units (background-subtracted, floor 0; scale differs between SH3 domains)); higher = stronger binding of the SH3 domain to the peptide
SPOT peptide array binding signal intensity: recorded values
// keep it numeric: no unit symbol after the value

>  <BINDER>
TKFRISLGLPVGAIM

>  <RESULT_NUMBER>
6

$$$$

Consider now this further binder.
Look up SPOT peptide array binding signal intensity for this binder: `VRTRRRPPPPPIPST`
520
